# target-desc: Glucocorticoid receptor (Homo sapiens)
# method-description: Agonist activity at glucocorticoid receptor in human HepG2 cells co-transfected with GRE assessed as GRE activation by luciferase reporter gene assay
# Assay type: functional, cell-based
pEC50: −log10 of the molar value.
measure-name: pEC50

| compound | target-desc | value-reported |
| --- | --- | --- |
| Cc1c[nH]c2c(-c3c(F)cc4c(c3F)/C(=N/OC(C)(C)CO)CC(C)(C)N4)cccc12 | Glucocorticoid receptor (Homo sapiens) | 7.72 |
| CCO/N=C1/c2c(cc(F)c(-c3cccc4c(C)c[nH]c34)c2F)NC(C)(C)C1O (racemic) | Glucocorticoid receptor (Homo sapiens) | 8.82 |
| Cc1c[nH]c2c(-c3c(F)cc4c(c3F)/C(=N/OC(C)C)CC(C)(C)N4)cccc12 | Glucocorticoid receptor (Homo sapiens) | 9.22 |
| Cc1c[nH]c2c(-c3c(F)cc4c(c3F)/C(=N/OC(C)(C)C)CC(C)(C)N4)cccc12 | Glucocorticoid receptor (Homo sapiens) | 8.30 |
| CC1(C)C/C(=N\OC(C)(C)C)c2c(cc(F)c(-c3cccc4c(Cl)c[nH]c34)c2F)N1 | Glucocorticoid receptor (Homo sapiens) | 8.47 |
| CO/N=C1/c2c(cc(F)c(-c3cccc4c(C)c[nH]c34)c2F)NC(C)(C)C1O (racemic) | Glucocorticoid receptor (Homo sapiens) | 8.41 |

====

# target-desc: Glucocorticoid receptor (Homo sapiens) (UniProt P04150)
# method-description: Agonist activity at glucocorticoid receptor in human HepG2 cells co-transfected with GRE assessed as GRE activation by luciferase reporter gene assay relative to Dexamethasone
# Assay type: functional, cell-based
# Parameters: concentration or dose not given beside the values
Measured Activity, listed per entry for reference.

| compound | target-desc | output-unit | Activity |
| --- | --- | --- | --- |
| CO/N=C1/c2c(cc(F)c(-c3cccc4c(C)c[nH]c34)c2F)NC(C)(C)C1O (racemic) | Glucocorticoid receptor (Homo sapiens) (UniProt P04150) | % | 150 |
| C[C@]12C=CC(=O)C=C1CC[C@@H]1[C@@H]2[C@@H](O)C[C@@]2(C)[C@H]1CC[C@]2(O)C(=O)CO | Glucocorticoid receptor (Homo sapiens) (UniProt P04150) | % | 129 |
| C[C@H]1c2c(cc(F)c(-c3cccc4cc[nH]c34)c2F)NC(C)(C)[C@@H]1O | Glucocorticoid receptor (Homo sapiens) (UniProt P04150) | % | 138 |
| Cc1c[nH]c2c(-c3c(F)cc4c(c3F)/C(=N/OC(C)(C)C)CC(C)(C)N4)cccc12 | Glucocorticoid receptor (Homo sapiens) (UniProt P04150) | % | 97 |
| Cc1c[nH]c2c(-c3c(F)cc4c(c3F)/C(=N/OC(C)C)CC(C)(C)N4)cccc12 | Glucocorticoid receptor (Homo sapiens) (UniProt P04150) | % | 138 |
| CCO/N=C1/c2c(cc(F)c(-c3cccc4c(C)c[nH]c34)c2F)NC(C)(C)C1O (racemic) | Glucocorticoid receptor (Homo sapiens) (UniProt P04150) | % | 138 |
| Cc1c[nH]c2c(-c3c(F)cc4c(c3F)/C(=N/OC(C)(C)CO)CC(C)(C)N4)cccc12 | Glucocorticoid receptor (Homo sapiens) (UniProt P04150) | % | 130 |
| CC1(C)C/C(=N\OC(C)(C)C)c2c(cc(F)c(-c3cccc4c(Cl)c[nH]c34)c2F)N1 | Glucocorticoid receptor (Homo sapiens) (UniProt P04150) | % | 97 |

====

Measured Activity, listed per entry for reference.
# target-desc: Glucocorticoid receptor (Homo sapiens) (UniProt P04150)
# method-description: Agonist activity at glucocorticoid receptor in human HepG2 cells co-transfected with PEPCK assessed as GRE activation by luciferase reporter gene assay relative to Dexamethasone
# Type: functional, cell-based
measure-name: Activity (%)

| molecule | measure-name | value-reported |
| --- | --- | --- |
| Cc1c[nH]c2c(-c3c(F)cc4c(c3F)/C(=N/OC(C)(C)C)CC(C)(C)N4)cccc12 | Activity | 28 |
| CCO/N=C1/c2c(cc(F)c(-c3cccc4c(C)c[nH]c34)c2F)NC(C)(C)C1O (racemic) | Activity | 61 |
| Cc1c[nH]c2c(-c3c(F)cc4c(c3F)/C(=N/OC(C)(C)CO)CC(C)(C)N4)cccc12 | Activity | 22 |
| Cc1c[nH]c2c(-c3c(F)cc4c(c3F)/C(=N/OC(C)C)CC(C)(C)N4)cccc12 | Activity | 35 |
| CO/N=C1/c2c(cc(F)c(-c3cccc4c(C)c[nH]c34)c2F)NC(C)(C)C1O (racemic) | Activity | 79 |
| CC1(C)C/C(=N\OC(C)(C)C)c2c(cc(F)c(-c3cccc4c(Cl)c[nH]c34)c2F)N1 | Activity | 27 |
| C[C@H]1c2c(cc(F)c(-c3cccc4cc[nH]c34)c2F)NC(C)(C)[C@@H]1O | Activity | 75 |

====

Measured pKi, listed per entry for reference.
# target-desc: Glucocorticoid receptor (Homo sapiens, UniProt P04150)
# Sequence (P04150 whole entry): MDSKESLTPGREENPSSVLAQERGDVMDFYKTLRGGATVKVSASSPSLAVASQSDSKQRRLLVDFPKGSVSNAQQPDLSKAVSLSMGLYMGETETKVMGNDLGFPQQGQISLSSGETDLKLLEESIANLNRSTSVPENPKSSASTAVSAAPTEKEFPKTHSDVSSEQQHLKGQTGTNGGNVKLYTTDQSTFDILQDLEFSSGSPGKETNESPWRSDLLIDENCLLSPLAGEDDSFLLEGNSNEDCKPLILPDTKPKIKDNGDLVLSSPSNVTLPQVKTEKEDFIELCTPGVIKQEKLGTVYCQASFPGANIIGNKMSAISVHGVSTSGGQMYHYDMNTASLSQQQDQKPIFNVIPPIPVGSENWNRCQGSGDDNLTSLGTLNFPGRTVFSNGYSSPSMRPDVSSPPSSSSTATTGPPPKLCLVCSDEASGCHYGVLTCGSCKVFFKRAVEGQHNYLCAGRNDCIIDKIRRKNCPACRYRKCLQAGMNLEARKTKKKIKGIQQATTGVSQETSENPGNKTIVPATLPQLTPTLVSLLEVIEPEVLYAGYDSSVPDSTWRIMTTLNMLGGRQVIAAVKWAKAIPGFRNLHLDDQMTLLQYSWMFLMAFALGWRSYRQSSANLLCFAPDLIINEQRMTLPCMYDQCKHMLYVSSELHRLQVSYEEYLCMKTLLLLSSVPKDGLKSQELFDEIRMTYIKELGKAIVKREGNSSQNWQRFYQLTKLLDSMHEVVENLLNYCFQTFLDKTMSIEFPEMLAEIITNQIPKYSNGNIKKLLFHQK
pKi: −log10 of the molar value.

| compound-structure | pKi |
| --- | --- |
| CC1(C)C/C(=N\O)c2c(cc(F)c(-c3cccc4cc[nH]c34)c2F)N1 | 6.43 |
| Cc1c[nH]c2c(-c3c(F)cc4c(c3F)/C(=N/OCc3ccccc3)CC(C)(C)N4)cccc12 | 8.24 |
| Cc1c[nH]c2c(-c3c(F)cc4c(c3F)/C(=N/OC(C)C)CC(C)(C)N4)cccc12 | 8.57 |
| Cc1c[nH]c2c(-c3c(F)cc4c(c3F)/C(=N/OC(C)(C)C(=O)O)CC(C)(C)N4)cccc12 | 5.57 |
| CO/N=C1\CC(C)(C)Nc2cc(F)c(-c3cccc4cc[nH]c34)c(F)c21 | 8.15 |
| CCO/N=C1\CC(C)(C)Nc2cc(F)c(-c3cccc4cc[nH]c34)c(F)c21 | 9.40 |
| Cc1c[nH]c2c(-c3c(F)cc4c(c3F)/C(=N/OC(C)(C)C)CC(C)(C)N4)cccc12 | 8.66 |
| CC1(C)C/C(=N\OC(C)(C)C)c2c(cc(F)c(-c3cccc4c(Cl)c[nH]c34)c2F)N1 | 8.70 |
| Cc1c[nH]c2c(-c3c(F)cc4c(c3F)/C(=N/Oc3ccccc3)CC(C)(C)N4)cccc12 | 7.51 |
| CC1(C)C/C(=N\OC(C)(C)C)c2c(cc(F)c(-c3cccc4cc[nH]c34)c2F)N1 | 8.15 |

====

# target-desc: Glucocorticoid receptor (Homo sapiens)
# method-description: Transrepression activity at glucocorticoid receptor in human HepG2 cells assessed as inhibition of TNFalpha/IL1beta-stimulated NFkappaB-dependent E-selectin repression by luciferase reporter gene assay
# Type: cell-based

| compound | output-unit | IC50 |
| --- | --- | --- |
| CCO/N=C1\CC(C)(C)Nc2cc(F)c(-c3cccc4cc[nH]c34)c(F)c21 | nM | 6.9 |
| Cc1c[nH]c2c(-c3c(F)cc4c(c3F)/C(=N/OC(C)(C)C)CC(C)(C)N4)cccc12 | nM | 5.6 |
| CO/N=C1/c2c(cc(F)c(-c3cccc4c(C)c[nH]c34)c2F)NC(C)(C)C1O (racemic) | nM | 3.4 |
| COC(=O)C(C)(C)O/N=C1\CC(C)(C)Nc2cc(F)c(-c3cccc4c(C)c[nH]c34)c(F)c21 | nM | 22 |

Provenance of the data: ChEMBL document CHEMBL1759905
